Molecular target: TEAD1 (Homo sapiens, UniProt P28347)
Sequence (P28347 whole entry, species assumed): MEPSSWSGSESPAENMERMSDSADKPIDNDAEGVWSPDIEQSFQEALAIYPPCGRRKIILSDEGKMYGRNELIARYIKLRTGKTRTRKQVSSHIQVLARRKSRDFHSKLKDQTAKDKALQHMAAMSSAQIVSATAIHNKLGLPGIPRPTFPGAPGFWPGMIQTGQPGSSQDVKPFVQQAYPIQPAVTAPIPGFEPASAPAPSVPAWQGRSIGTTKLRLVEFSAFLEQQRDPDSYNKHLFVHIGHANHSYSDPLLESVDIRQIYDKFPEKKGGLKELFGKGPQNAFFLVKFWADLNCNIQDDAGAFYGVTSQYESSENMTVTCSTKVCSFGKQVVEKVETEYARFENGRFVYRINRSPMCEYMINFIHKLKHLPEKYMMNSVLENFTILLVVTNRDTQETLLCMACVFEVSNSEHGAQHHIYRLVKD
Test: Thermal shift assay TEAD1
Format: binding
Parameter Measured: TEAD1 ΔTm (°C)

[[record]]
compound = "O=C(O)[C@@H]1CC1c1cc(-c2ccc(C(F)(F)F)cc2)cc2cccnc12 (mixture of isomers) [Example 13]"
measurement_target = "TEAD1 (Homo sapiens, UniProt P28347)"
unit_text = "°C"
test_value = 7.7

[[record]]
compound = "O=C(O)[C@@H]1CC1c1cc(-c2ccc(C(F)(F)F)cc2)cc2c1cnn2C(F)F (mixture of isomers) [Example 9]"
measurement_target = "TEAD1 (Homo sapiens, UniProt P28347)"
unit_text = "°C"
test_value = 5.8

[[record]]
compound = "Cn1cc2cc(O[C@H]3CC[C@@H](C(F)(F)F)CC3)cc([C@H]3C[C@@H]3C(=O)N3CC(O)C3)c2n1 (single isomer, unassigned) [Example 87b]"
measurement_target = "TEAD1 (Homo sapiens, UniProt P28347)"
unit_text = "°C"
test_value = "−0.4"

[[record]]
compound = "Cn1cc2cc(Oc3ccc(C(F)(F)F)cc3)cc([C@@H]3C[C@H]3C(=O)N3CC4CC(C3)N4)c2n1 (single isomer, unassigned) [Example 123]"
measurement_target = "TEAD1 (Homo sapiens, UniProt P28347)"
unit_text = "°C"
test_value = 7.7

